- target.or.system: IL-13 (Homo sapiens)
- Sequence (P35225 25-146, species assumed): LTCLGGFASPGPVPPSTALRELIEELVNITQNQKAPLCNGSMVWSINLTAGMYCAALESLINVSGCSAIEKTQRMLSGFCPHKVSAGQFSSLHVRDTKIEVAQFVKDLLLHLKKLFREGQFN
- assay.info: Immunoassay binding test, IL-13
- condition.notes: 100 μM
Listing: BINDING IL13 % Neutra at 100 μM of selected molecules
The reply should contain only the number, in %.

Study these solved cases before continuing.
{"columns": ["smiles.code", "BINDING IL13 % Neutra at 100 μM / %"],
 "data": [
  ["CCN(CCCCN(Cc1cccnc1F)Cc1cn(S(=O)(=O)c2ccccc2)c2ccccc12)C1CCCCC1", 85.1],
  ["CN(CCCCCN(Cc1ccncc1)Cc1cn(S(=O)(=O)c2ccccc2)c2ccccc12)C1CCCCC1", 97.1],
  ["O=S(=O)(c1ccccc1)n1cc(CN(CCCCNC2CCCCCCC2)Cc2cccnc2F)c2ccccc21", 85.8]
]}

Turning to the following molecule.
Lab book: BINDING IL13 % Neutra at 100 μM of O=S(=O)(c1ccccc1)n1cc(CN(CCCCCNC2CCCCC2)Cc2ccc(F)nc2)c2ccccc21 noted as 93.4

====

- target.or.system: IL-4 (Homo sapiens, UniProt P05112)
- Sequence (P05112 25-153): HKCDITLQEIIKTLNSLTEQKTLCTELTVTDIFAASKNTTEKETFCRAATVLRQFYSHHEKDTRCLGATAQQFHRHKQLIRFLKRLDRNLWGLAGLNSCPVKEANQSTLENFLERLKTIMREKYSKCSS
- assay.info: Immunoassay binding test, IL-4
- condition.notes: 100 μM
Listing: BINDING IL4 % Neutra at 100 μM of selected compounds

{"columns": ["smiles.code", "BINDING IL4 % Neutra at 100 μM"],
 "data": [
  ["CN(CCN(Cc1cccnc1)Cc1cn(S(=O)(=O)c2ccccc2)c2ccccc12)C1CCCCC1", "96.3%"],
  ["CCN(CCCCN(Cc1cccnc1F)Cc1cn(S(=O)(=O)c2ccccc2)c2ccccc12)C1CCCCC1", "89.1%"],
  ["CN(CCCCCN(Cc1ccncc1)Cc1cn(S(=O)(=O)c2ccccc2)c2ccccc12)C1CCCCC1", "96.1%"],
  ["O=S(=O)(c1ccccc1)n1cc(CN(CCOCCNC2CCCCC2)Cc2cccnc2F)c2ccccc21", "90.7%"]
]}

Turning to the following compound.
Lab book: BINDING IL4 % Neutra at 100 μM of CN1CCN(C(=O)NCCCCN(Cc2cccnc2F)Cc2cn(S(=O)(=O)c3ccccc3)c3ccccc23)CC1 noted as 84.6%

====

Listing: pIC50 of selected compounds
- target.or.system: IL-4 (Homo sapiens)
- Sequence (P05112 25-153): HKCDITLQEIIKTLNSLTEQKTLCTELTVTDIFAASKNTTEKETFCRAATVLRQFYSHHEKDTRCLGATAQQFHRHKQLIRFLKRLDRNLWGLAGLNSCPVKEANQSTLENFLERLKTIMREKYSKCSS
Please treat pIC50 as minus the base-10 logarithm of the molar concentration.

Study these solved cases before continuing.
{"columns": ["smiles.code", "pIC50"],
 "data": [
  ["CCN(CCOCCN(Cc1cccnc1F)Cc1cn(S(=O)(=O)c2ccccc2)c2ccccc12)C1CCCCC1", 5.07],
  ["CN1CCN(S(=O)(=O)n2cc(CN(CCCCN(C)C3CCCCC3)Cc3cccnc3F)c3ccccc32)CC1", 5.11],
  ["CCCCN(CCOCCN(Cc1cccnc1F)Cc1cn(S(=O)(=O)c2ccccc2)c2ccccc12)C1CCCCC1", 5.20],
  ["CN(CCCCCN(Cc1ccnc(F)c1)Cc1cn(S(=O)(=O)c2ccccc2)c2ccccc12)C1CCCCC1", 5.28]
]}

Turning to the following compound.
Lab book: pIC50 of O=S(=O)(c1ccccc1)n1cc(CN(CCCCNC2CCCCC2)Cc2cccnc2F)c2ccccc21 noted as 5.17

====

Dear all, this message contains IC50 results, target or system IL-13 (Homo sapiens, UniProt P35225).

Study these solved cases before continuing.
{"columns": ["molecule", "test.value"],
 "data": [
  ["CN(CCN(Cc1cccnc1)Cc1cn(S(=O)(=O)c2ccccc2)c2ccccc12)C1CCCCC1", "> 50 µM"],
  ["O=S(=O)(c1ccccc1)n1cc(CN(Cc2ccnc(F)c2)CC2CCCN(C3CCCCC3)C2)c2ccccc21 (stereo not shown)", "> 50 µM"],
  ["CCCN(CCOCCN(Cc1cccnc1F)Cc1cn(S(=O)(=O)c2ccccc2)c2ccccc12)C1CCCCC1", "35.5 µM"]
]}

Record FC(F)(F)c1cccc(-n2cc(CN(CCNC3CCCCC3)Cc3ccncc3)c3ccccc32)c1 ; system IL-13 (Homo sapiens, UniProt P35225); IC50 = > 50 µM

====

- target.or.system: TNFa/TNFRI interaction (Homo sapiens, UniProt P01375)
- Sequence (P01375 77-233 limits assumed): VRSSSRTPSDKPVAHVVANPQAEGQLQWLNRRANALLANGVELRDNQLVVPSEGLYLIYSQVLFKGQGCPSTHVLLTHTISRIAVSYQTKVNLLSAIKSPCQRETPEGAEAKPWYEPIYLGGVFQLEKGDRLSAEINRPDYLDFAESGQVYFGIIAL
- assay.info: TNFa/TNFRI interaction displacement test
- Type: binding
- condition.notes: compounds at 50 μM; human TNFRI 100 ng/ml
Listing: Displacement (%) of selected compounds
Write the numeric value and append its unit.

{"columns": ["smiles.code", "test.value"],
 "data": [
  ["CN(CCN(Cc1ccncc1)Cc1cn(-c2cccc(C(F)(F)F)c2)c2ccccc12)C1CCCCC1", "120%"]
]}

Lab book: Displacement (%) of O=S(=O)(c1ccccc1)n1cc(CN(CCCCNC2CCCCC2)Cc2ccc(F)nc2)c2ccccc21 noted as 172%

Lab book: Displacement (%) of O=S(=O)(c1ccccc1)n1cc(CN(CCCCNC2CCCCC2)Cc2cccnc2F)c2ccccc21 noted as 87%

Lab book: Displacement (%) of O=S(=O)(c1ccccc1)n1cc(CN(CCCCNC2CCCCC2)Cc2cccc(F)n2)c2ccccc21 noted as 114%

====

- target.or.system: TNFα (Homo sapiens)
- Sequence (P01375 77-233 limits assumed, species assumed): as the sequence (P01375 77-233 limits assumed) above
- assay.info: Immunoassay binding test, TNFa
- condition.notes: compounds 100 to 0.78 μM; TNFα 10 ng/ml, receptor 100 ng/ml; read-out: BINDING TNF IC50
Listing: pIC50 of selected compounds
Please treat pIC50 as minus the base-10 logarithm of the molar concentration.

{"columns": ["compound", "test.value"],
 "data": [
  ["CN(CCOCCN(Cc1cccnc1F)Cc1cn(S(=O)(=O)c2ccccc2)c2ccccc12)C1CCCC1 [Compound 104]", 5.04],
  ["CCCCN(CCOCCN(Cc1cccnc1F)Cc1cn(S(=O)(=O)c2ccccc2)c2ccccc12)C1CCCCC1 [Compound 102]", 5.14],
  ["CN(CCCCCN(Cc1cccnc1)Cc1cn(S(=O)(=O)c2ccccc2)c2ccccc12)C1CCCCC1", 5.41]
]}

Lab book: pIC50 of CN(CCN(Cc1cccnc1)Cc1cn(-c2cccc(C(F)(F)F)c2)c2ccccc12)C1CCCCC1 noted as 4.80

====

- target.or.system: IL-6 (Homo sapiens, UniProt P05231)
- Sequence (P05231 30-212, species assumed): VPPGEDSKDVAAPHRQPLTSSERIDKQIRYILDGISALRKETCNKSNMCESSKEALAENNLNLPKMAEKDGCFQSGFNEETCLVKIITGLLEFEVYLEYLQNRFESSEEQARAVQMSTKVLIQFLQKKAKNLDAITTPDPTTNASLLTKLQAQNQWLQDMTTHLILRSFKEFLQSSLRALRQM
- assay.info: Immunoassay binding test, IL-6 (gp130 receptor, IL-6Ra present)
- condition.notes: IL-6Ra 200 ng/ml
Listing: BINDING IL6 % Neutra at 100 μM of selected compounds
The reply should contain only the number, in %.

Study these solved cases before continuing.
{"columns": ["compound", "BINDING IL6 % Neutra at 100 μM, %"],
 "data": [
  ["CN(CCCCCN(Cc1ccnc(F)c1)Cc1cn(S(=O)(=O)c2ccccc2)c2ccccc12)C1CCCCC1", 0],
  ["CCCN(CCOCCN(Cc1cccnc1F)Cc1cn(S(=O)(=O)c2ccccc2)c2ccccc12)C1CCCC1 [Compound 106]", 0],
  ["NCCCCN(Cc1cn(S(=O)(=O)c2ccccc2)c2ccccc12)Cc1cn(S(=O)(=O)c2ccccc2)c2ccccc12", 6],
  ["NCCCCN(Cc1cccnc1F)Cc1cn(S(=O)(=O)c2ccccc2)c2ccccc12", 0],
  ["CN(CCCCN(Cc1ccnc(F)c1)Cc1cn(S(=O)(=O)c2ccccc2)c2ccccc12)C1CCCCC1", 0]
]}

Turning to the following compound.
Lab book: BINDING IL6 % Neutra at 100 μM of CN(CCN(Cc1cccnc1)Cc1cn(-c2cccc(C(F)(F)F)c2)c2ccccc12)C1CCCCC1 noted as 15.5

====

Dear all, this message contains IC50 results, target or system TNFα (Homo sapiens, UniProt P01375).
The reply should contain only the number, in µM.

{"columns": ["compound", "IC50, µM"],
 "data": [
  ["CCCN(CCOCCN(Cc1cccnc1F)Cc1cn(S(=O)(=O)c2ccccc2)c2ccccc12)C1CCCC1 [Compound 106]", 11.5],
  ["CN(CCCCN(Cc1cccnc1)Cc1cn(S(=O)(=O)c2ccccc2)c2ccccc12)C1CCCCC1", 1.1],
  ["O=S(=O)(c1ccccc1)n1cc(CN(CCCNC2CCCCC2)Cc2ccncc2)c2ccccc21", 12.2],
  ["CN(CCCCN(Cc1cccnc1F)Cc1cn(S(=O)(=O)c2ccccc2)c2ncccc12)C1CCCCC1", 19],
  ["FC(F)(F)c1cccc(-n2cc(CN(Cc3cccnc3)CC3CCCN(C4CCCCC4)C3)c3ccccc32)c1 (stereo not drawn)", 21.3],
  ["FC(F)(F)c1cccc(-n2cc(CN(CCCCCNC3CCCCC3)Cc3ccncc3)c3ccccc32)c1", 19.1],
  ["CN(CCCCN(Cc1ccncc1)Cc1cn(-c2cccc(C(F)(F)F)c2)c2ccccc12)C1CCCCC1", 13.5],
  ["O=S(=O)(c1ccccc1)n1cc(CN(CCCCCNCc2cccnc2F)Cc2cccnc2F)c2ccccc21", 26.8]
]}

Lab book: IC50 of Fc1cc(CN(Cc2cn(-c3cccc(C(F)(F)F)c3)c3ccccc23)CC2CCCN(C3CCCCC3)C2)ccn1 (stereo not drawn) noted as 19.7

Lab book: IC50 of CN(CCOCCN(Cc1cccnc1F)Cc1cn(S(=O)(=O)c2ccccc2)c2ccccc12)C1CCCC1 [Compound 105] noted as 7.5

Lab book: IC50 of FC(F)(F)c1cccc(-n2cc(CN(CCNC3CCCCC3)Cc3ccncc3)c3ccccc32)c1 noted as 18.3

Lab book: IC50 of O=S(=O)(c1ccccc1)n1cc(CN(Cc2ccccn2)CC2CCCN(C3CCCCC3)C2)c2ccccc21 (stereo not drawn) noted as 11.9

Lab book: IC50 of O=S(=O)(c1ccccc1)n1cc(CN(CCCCCNC2CCCCC2)Cc2ccc(F)nc2)c2ccccc21 noted as 13.2
